Cited source for all entries: the supplement of paper PMC10724198

# Tested on: Saccharomyces cerevisiae;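 note: PSI is a weighted mean of sequencing reads over stability bins, variants kept only with over 10 reads, mCherry proximal and sfGFP distal, peptide attached via GGGS linker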
# test.protocol: protein stability index of tFT-peptide fusion (C-terminal peptide) (PSI (0-1 scale)); higher = more stable (slower turnover)
# assay.context: genetic background: wild type; temperature: 30 C
Decide using protein stability index: a value greater than or equal to 0.7 is Met, a smaller one is Not met.

Check the entry `IRSRGLLIRWLS` : does protein stability index equal or exceed 0.7?
Not met

Check the entry `PLPARSPPPTSV` : does protein stability index equal or exceed 0.7?
Not met

New cases:
Check the entry `LWCPLLTSFPSY` : does protein stability index equal or exceed 0.7?
Met

Check the entry `PPVLVPAHHRPD` : does protein stability index equal or exceed 0.7?
Not met

Check the entry `SFRVLCHGAQLL` : does protein stability index equal or exceed 0.7?
Not met
